Answer each item with its documented selectivity ratio.
- Test Details: Therapeutic index, ratio of IC50 for rat L6 cells to IC50 for Trypanosoma cruzi
Just the number, please.

Fill in reported selectivity ratio for this entry: COc1ccc(-c2c(OC)cc(OC)c3c2CC(C)(C)N=C3C)cc1
12.1

Fill in reported selectivity ratio for this entry: COc1cc(OC)c2c(c1I)CC(C)(C)N(Cc1ccccc1)C2
17.8

Fill in reported selectivity ratio for this entry: COc1ccc(I)c2c1CN(Cc1ccccc1)C(C)(C)C2
5.77

Fill in reported selectivity ratio for this entry: COc1cc(OC)c(-c2ccc(O)c3ccccc23)c2c1CNC(C)(C)C2
1.53

Fill in reported selectivity ratio for this entry: COc1cc(OC)c2c(c1Br)CC(C)(C)N(Cc1ccccc1)C2
14.6

---

- Test Details: Therapeutic index, ratio of IC50 for rat L6 cells to IC50 for Trypanosoma cruzi C2C4
- Assay type: cell-based
- Condition Notes: read-out: Ratio IC50
Answer each item with its documented selectivity ratio.
Just the number, please.

Fill in reported selectivity ratio for this entry: COc1cc(OC)c(-c2ccc(O)c3ccccc23)c2c1CNC(C)(C)C2
1.62

Fill in reported selectivity ratio for this entry: COc1cc(OC)c2c(c1I)CC(C)(C)N(Cc1ccccc1)C2
27.5

Fill in reported selectivity ratio for this entry: COc1cc(OC)c2c(c1Br)CC(C)(C)N(Cc1ccccc1)C2
20.2

---

Answer each item with its documented log10 IC50.
- System: Leishmania donovani
- Test Details: Antileishmanial activity against Leishmania donovani infected in mouse peritoneal macrophages after 96 hrs
- Type: functional, organism-based
Quick note: numbers are log10 of IC50, with µg/mL as the unit.

Fill in reported log10 IC50 for this entry: COc1cc2c(c(OC)c1)CN(Cc1ccccc1)C(C)(C)C2
0.15

Fill in reported log10 IC50 for this entry: COc1cc(OC)c2c(c1I)CC(C)(C)NC2
-0.33

Fill in reported log10 IC50 for this entry: COc1cc(OC)c2c(c1Br)CC(C)(C)N(Cc1ccccc1)C2
-0.37

Fill in reported log10 IC50 for this entry: COc1cc(OS(=O)(=O)C(F)(F)F)cc2c1CN(Cc1ccccc1)C(C)(C)C2
0.67

Fill in reported log10 IC50 for this entry: COc1cc(OC)c2c(c1Br)CC(C)(C)N=C2C
-0.42

Fill in reported log10 IC50 for this entry: COc1ccc(I)c2c1CN(Cc1ccccc1)C(C)(C)C2
0.59

Fill in reported log10 IC50 for this entry: COc1cc2c(c(OC)c1)C(C)=NC(C)(C)C2
0.61

Fill in reported log10 IC50 for this entry: COc1cc(OC)c2c(c1Br)CC(C)(C)NC2
-0.20

---

- Test Details: Therapeutic index, ratio of IC50 for rat L6 cells to IC50 for Leishmania donovani
- Format: cell-based
- Condition Notes: read-out: Ratio IC50
Answer each item with its documented selectivity ratio.

Fill in reported selectivity ratio for this entry: COc1cc2c(c(OC)c1)CN(Cc1ccccc1)C(C)(C)C2
> 64.5

Fill in reported selectivity ratio for this entry: COc1cc(OS(=O)(=O)C(F)(F)F)cc2c1CN(Cc1ccccc1)C(C)(C)C2
> 19.2

Fill in reported selectivity ratio for this entry: COc1cc2c(c(OC)c1)C(C)=NC(C)(C)C2
> 22.2
